Target: glucocorticoid receptor (Rattus norvegicus, UniProt P06536)
Construct: receptors in the cytosol from animal target organs; from tissue; host or cells: thymus cytosol of adrenalectomized rat
Sequence (P06536 whole entry): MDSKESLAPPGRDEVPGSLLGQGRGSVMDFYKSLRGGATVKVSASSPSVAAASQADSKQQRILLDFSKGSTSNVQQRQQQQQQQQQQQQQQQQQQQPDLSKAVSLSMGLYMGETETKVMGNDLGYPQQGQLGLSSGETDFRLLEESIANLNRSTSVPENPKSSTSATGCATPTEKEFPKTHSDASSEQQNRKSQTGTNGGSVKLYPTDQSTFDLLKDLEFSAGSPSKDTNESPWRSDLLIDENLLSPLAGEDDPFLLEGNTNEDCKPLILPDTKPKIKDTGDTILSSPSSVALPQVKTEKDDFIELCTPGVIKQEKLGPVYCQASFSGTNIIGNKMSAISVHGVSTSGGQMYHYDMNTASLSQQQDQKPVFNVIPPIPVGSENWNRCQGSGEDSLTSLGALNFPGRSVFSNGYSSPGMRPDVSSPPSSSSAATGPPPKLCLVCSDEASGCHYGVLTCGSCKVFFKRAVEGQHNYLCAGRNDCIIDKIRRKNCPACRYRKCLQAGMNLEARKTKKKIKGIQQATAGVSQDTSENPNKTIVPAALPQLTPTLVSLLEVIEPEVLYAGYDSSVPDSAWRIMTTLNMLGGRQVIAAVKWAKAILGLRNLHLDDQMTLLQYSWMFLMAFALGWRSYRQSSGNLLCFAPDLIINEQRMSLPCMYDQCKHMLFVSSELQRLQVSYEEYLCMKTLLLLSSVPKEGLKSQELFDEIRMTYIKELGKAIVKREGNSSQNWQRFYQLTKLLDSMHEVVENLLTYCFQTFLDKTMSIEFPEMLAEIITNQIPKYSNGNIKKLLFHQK
Test: Receptor bonding affinity: competitive bonding of 3H-dexamethasone and test compound to glucocorticoid receptor in thymus cytosol of the adrenalectomized rat
Type: binding
Conditions: dexamethasone = 100%; tracer 3H-dexamethasone 20 nM; 18 hours at 0-4 °C; quotient of IC50 values x 100%
Overview of reported Relative molar bonding affinity (RBA) for the glucocorticoid receptor across a group of compounds:
attribute_measured: Relative molar bonding affinity (RBA) for the glucocorticoid receptor (%)

| compound | tested_target | obs_value |
| --- | --- | --- |
| COC[C@]1(OC)CC[C@H]2[C@@H]3CCC4=CC(=O)CCC4=C3[C@@H](c3ccc(C=NOC(C)=O)cc3)C[C@@]21C [Example 1] | glucocorticoid receptor (Rattus norvegicus, UniProt P06536) | 73 |
| CCOC(=O)ON=Cc1ccc([C@H]2C[C@@]3(C)[C@@H](CC[C@]3(COC)OC)[C@@H]3CCC4=CC(=O)CCC4=C32)cc1 [Example 2] | glucocorticoid receptor (Rattus norvegicus, UniProt P06536) | 66 |
| CN(C)c1ccc([C@H]2C[C@]3(C)[C@@H](CC[C@]3(O)CCCO)[C@@H]3CCC4=CC(=O)CCC4=C32)cc1 [ZK 98299, reference compound] | glucocorticoid receptor (Rattus norvegicus, UniProt P06536) | 39 |
| CC#C[C@]1(O)CC[C@H]2[C@@H]3CCC4=CC(=O)CCC4=C3[C@@H](c3ccc(N(C)C)cc3)C[C@@]21C [RU 486, reference compound] | glucocorticoid receptor (Rattus norvegicus, UniProt P06536) | 685 |

These data points were gathered from patent US5576310A.
